System: MDR1-MDCKII cells
Conditions: MDCK-MDR1
Quantity name: MDR1-MDCKII permeability in the A–B direction, grade in words

Consider the following illustrative entries.
[[record]]
molecule = "O=C(Nc1sc2c(c1C(=O)N1CCC(CO)C1)CCCC2)c1cccnc1 (stereo not drawn)"
measurement_target = "MDR1-MDCKII cells"
result = "moderate"

[[record]]
molecule = "CN1CCN(CC(=O)Nc2sc3c(c2C(=O)NCc2ccccc2)CCCC3)CC1"
measurement_target = "MDR1-MDCKII cells"
result = "moderate"

[[record]]
molecule = "CSc1ncc(Cl)c(C(=O)Nc2sc3c(c2C(=O)NCc2ccccc2)CCCC3)n1"
measurement_target = "MDR1-MDCKII cells"
result = "moderate"

[[record]]
molecule = "CC1CCCN1C(=O)c1c(NC(=O)c2cccnc2)sc2c1CCCC2 (stereo not drawn)"
measurement_target = "MDR1-MDCKII cells"
result = "high"


Next molecule, MDR1-MDCKII permeability in the A–B direction, grade in words to be filled in.
What value of MDR1-MDCKII permeability in the A–B direction, grade in words has been reported for the following molecule? CSc1ncc(Cl)c(C(=O)Nc2sc3c(c2C(=O)NC2CCS(=O)(=O)C2)CCC(C)C3)n1 (stereo not drawn)
moderate

----------
This section presents compounds with their documented microsomal stability Clin values.
Conditions: human, microsomes, pH 7.4

[[record]]
compound = "CN1CCN(CC(=O)Nc2sc3c(c2C(=O)NCc2ccccc2)CCCC3)CC1 [Compound 10]"
quantity_name = "microsomal stability Clin"
result = "319/214/115/132 μL/min/mg"

[[record]]
compound = "CSc1ncc(Cl)c(C(=O)Nc2sc3c(c2C(=O)NC2CCS(=O)(=O)C2)CCC(C)C3)n1 (stereo not shown) [Compound 3]"
quantity_name = "microsomal stability Clin"
result = "322/36/118/41 μL/min/mg"


What value of microsomal stability Clin has been reported for the following compound? CCC1CCc2c(sc(NC(=O)c3ccnn3C)c2C(=O)Nc2ccccc2C)C1 (stereo not shown) [Compound 4]
11/22/29/24 μL/min/mg

Same again, this time with CC1CCc2c(sc(NC(=O)c3ccccc3F)c2C(=O)N2CCN(C)CC2)C1 (stereo not shown) [Compound 6]
546/91/116/60 μL/min/mg

Same again, this time with O=C(Nc1sc2c(c1C(=O)N1CCC(CO)C1)CCCC2)c1cccnc1 (stereo not shown) [Compound 17]
46/23/7/11 μL/min/mg

Same again, this time with CC1CCN(CC(=O)Nc2sc3c(c2C(=O)NCc2ccccc2)CCCC3)CC1 [Compound 11]
2345/510/942/260 μL/min/mg

Same again, this time with CC1CCCN1C(=O)c1c(NC(=O)c2cccnc2)sc2c1CCCC2 (stereo not shown) [Compound 12]
71/67/97/53 μL/min/mg

Same again, this time with CSc1ncc(Cl)c(C(=O)Nc2sc3c(c2C(=O)NCc2ccccc2)CCCC3)n1 [Compound 2]
127/126/267/115 μL/min/mg

Same again, this time with C[C@@H]1CCN(C(=O)c2c(NC(=O)c3cccnc3)sc3c2CCCC3)[C@H](C)C1 [Compound 13]
414/404/507/369 μL/min/mg

Same again, this time with Cn1ccnc1SCC(=O)Nc1sc2c(c1C(=O)NCc1ccccc1)CCCC2 [Compound 16]
2142/954/887/332 μL/min/mg

----------
This section presents compounds with their documented microsomal stability Clin values.
Conditions: dog, microsomes, pH 7.4

[[record]]
compound = "O=C(Nc1sc2c(c1C(=O)N1CCC(CO)C1)CCCC2)c1cccnc1 (stereo not shown)"
result = "46/23/7/11 μL/min/mg"

[[record]]
compound = "C[C@@H]1CCN(C(=O)c2c(NC(=O)c3cccnc3)sc3c2CCCC3)[C@H](C)C1"
result = "414/404/507/369 μL/min/mg"

[[record]]
compound = "CSc1ncc(Cl)c(C(=O)Nc2sc3c(c2C(=O)NCc2ccccc2)CCCC3)n1"
result = "127/126/267/115 μL/min/mg"

[[record]]
compound = "CC1CCN(CC(=O)Nc2sc3c(c2C(=O)NCc2ccccc2)CCCC3)CC1"
result = "2345/510/942/260 μL/min/mg"

[[record]]
compound = "CCC1CCc2c(sc(NC(=O)c3ccnn3C)c2C(=O)Nc2ccccc2C)C1 (stereo not shown)"
result = "11/22/29/24 μL/min/mg"


What value of microsomal stability Clin has been reported for the following compound? CSc1ncc(Cl)c(C(=O)Nc2sc3c(c2C(=O)NC2CCS(=O)(=O)C2)CCC(C)C3)n1 (stereo not shown)
322/36/118/41 μL/min/mg

Same again, this time with CC1CCc2c(sc(NC(=O)c3ccccc3F)c2C(=O)N2CCN(C)CC2)C1 (stereo not shown)
546/91/116/60 μL/min/mg

----------
Biological target: human GAL4-RORγ (Homo sapiens, UniProt P51449)
Sequence (P51449 269-508 limits assumed): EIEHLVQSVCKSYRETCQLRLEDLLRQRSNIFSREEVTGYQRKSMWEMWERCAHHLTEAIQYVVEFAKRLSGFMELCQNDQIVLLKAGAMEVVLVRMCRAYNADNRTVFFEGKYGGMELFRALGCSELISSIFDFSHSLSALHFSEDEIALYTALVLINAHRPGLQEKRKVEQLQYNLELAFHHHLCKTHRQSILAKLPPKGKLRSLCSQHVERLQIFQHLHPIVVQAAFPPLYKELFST
Test: human GAL4-RORγ reporter assay
pIC50: −log10 of the molar value.
Quantity name: pIC50

[[record]]
compound = "CSc1ncc(Cl)c(C(=O)Nc2sc3c(c2C(=O)NCc2ccccc2)CCCC3)n1 [Compound 2]"
measurement_target = "human GAL4-RORγ (Homo sapiens, UniProt P51449)"
quantity_name = "pIC50"
measured_number = 9.12


I: CN1CCN(CC(=O)Nc2sc3c(c2C(=O)NCc2ccccc2)CCCC3)CC1 [Compound 10]
II: CSc1ncc(Cl)c(C(=O)Nc2sc3c(c2C(=O)NC2CCS(=O)(=O)C2)CCC(C)C3)n1 (stereo not drawn) [Compound 3]
Between the two listed entries I and II , which has its pIC50 at the higher number? I would appreciate it if you answered with the label of your choice.
I
(I: 9.09, II: 8.66)

----------
Tested on: Caco-2 cells
Conditions: Caco-2
Quantity name: Caco-2 permeability in the A–B direction, grade in words

Consider the following illustrative entries.
[[record]]
compound = "O=C(Nc1sc2c(c1C(=O)N1CCC(CO)C1)CCCC2)c1cccnc1 (stereo not drawn)"
measurement_target = "Caco-2 cells"
result = "moderate"

[[record]]
compound = "CC1CCN(CC(=O)Nc2sc3c(c2C(=O)NCc2ccccc2)CCCC3)CC1"
measurement_target = "Caco-2 cells"
result = "low permeability"

[[record]]
compound = "CN1CCN(CC(=O)Nc2sc3c(c2C(=O)NCc2ccccc2)CCCC3)CC1"
measurement_target = "Caco-2 cells"
result = "moderate"

[[record]]
compound = "CSc1ncc(Cl)c(C(=O)Nc2sc3c(c2C(=O)NC2CCS(=O)(=O)C2)CCC(C)C3)n1 (stereo not drawn)"
measurement_target = "Caco-2 cells"
result = "low permeability"


Next compound, Caco-2 permeability in the A–B direction, grade in words to be filled in.
What value of Caco-2 permeability in the A–B direction, grade in words has been reported for the following compound? `CSc1ncc(Cl)c(C(=O)Nc2sc3c(c2C(=O)NCc2ccccc2)CCCC3)n1`
moderate

----------
Details: dog, microsomes, pH 7.4
This section presents compounds with their documented microsomal stability Clin values.

Consider the following illustrative entries.
[[record]]
compound = "CC1CCCN1C(=O)c1c(NC(=O)c2cccnc2)sc2c1CCCC2 (stereo not drawn)"
result = "71/67/97/53 μL/min/mg"

[[record]]
compound = "CN1CCN(CC(=O)Nc2sc3c(c2C(=O)NCc2ccccc2)CCCC3)CC1"
result = "319/214/115/132 μL/min/mg"


Next compound, microsomal stability Clin to be filled in.
What value of microsomal stability Clin has been reported for the following compound? `Cn1ccnc1SCC(=O)Nc1sc2c(c1C(=O)NCc1ccccc1)CCCC2`
2142/954/887/332 μL/min/mg
